Items are presented alongside their recorded pEC50.
TEST_TARGET: human RXFP1 (Homo sapiens)
Sequence (Q9HBX9 1-757): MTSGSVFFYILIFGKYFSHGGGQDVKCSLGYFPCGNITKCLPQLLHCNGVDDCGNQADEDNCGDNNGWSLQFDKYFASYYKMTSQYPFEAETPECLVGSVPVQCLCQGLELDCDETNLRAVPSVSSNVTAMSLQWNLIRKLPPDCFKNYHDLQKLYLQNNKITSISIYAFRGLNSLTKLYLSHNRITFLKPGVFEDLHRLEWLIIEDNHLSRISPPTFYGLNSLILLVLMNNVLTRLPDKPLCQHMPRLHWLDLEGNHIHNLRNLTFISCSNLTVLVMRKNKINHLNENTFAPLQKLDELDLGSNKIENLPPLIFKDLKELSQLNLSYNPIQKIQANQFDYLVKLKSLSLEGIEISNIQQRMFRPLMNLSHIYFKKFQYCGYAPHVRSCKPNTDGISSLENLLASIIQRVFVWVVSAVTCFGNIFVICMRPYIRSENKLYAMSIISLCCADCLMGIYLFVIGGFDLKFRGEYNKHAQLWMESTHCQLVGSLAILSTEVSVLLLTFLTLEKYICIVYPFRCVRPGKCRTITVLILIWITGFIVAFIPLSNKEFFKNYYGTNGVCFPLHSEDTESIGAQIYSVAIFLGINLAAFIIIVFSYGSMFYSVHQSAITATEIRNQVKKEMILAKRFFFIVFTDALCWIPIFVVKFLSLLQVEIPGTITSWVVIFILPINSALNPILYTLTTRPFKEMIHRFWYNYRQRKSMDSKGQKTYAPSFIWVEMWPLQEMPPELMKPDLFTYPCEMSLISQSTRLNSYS
ASSAY_NAME: hRXFP1 HEK293 cAMP assay (HTRF)
TEST_PARAMETERS: HEK293 cells stably expressing human RXFP1, 30 min at room temperature
Quick note: pEC50 values are minus log10 of concentrations in mol/L.

Here's what some known entries look like.
Item COc1ccc(CC[C@@H](C)O)cc1C(=O)N[C@@H]1C2CCC(/C2=C/C2CC2)[C@@H]1C(=O)Nc1ccc(F)c(C(F)(F)F)c1 (some centres unmarked) : provide pEC50
7.30

Give the value of pEC50 reported for the following: COc1ccc(CCCN(C(=O)OC(C)(C)C)C2CCC2)cc1C(=O)N[C@@H]1C2CCC(/C2=C/C(F)(F)F)[C@@H]1C(=O)Nc1ccc(F)c(C(F)(F)F)c1 (some centres unmarked)
6.52

Retrieve pEC50 measured for COc1ccc(C(F)(F)F)cc1C(=O)N[C@@H]1C2CCC(C2=C(C)C)[C@@H]1C(=O)Nc1ccc(F)c(C(F)(F)F)c1 (some centres unmarked) and print it.
5.82

Find the measured pEC50 of CCOC(=O)/C(C)=C/c1ccc(OC)c(C(=O)N[C@H]2[C@@H](C(=O)Nc3ccc(F)c(C(F)(F)F)c3)[C@H]3CC[C@@H]2/C3=C\C(F)(F)F)c1 [Example 305] and report it.
6.13

Hello, please tell me recorded pEC50 for this one: COc1ccc(C(=O)OC(C)(C)C)cc1C(=O)N[C@H]1[C@@H](C(=O)Nc2ccc(F)c(C(F)(F)F)c2)[C@H]2CC[C@@H]1/C2=C\C1CC1
7.11

Look up and report measured pEC50 for this entry: COc1ccc(C#CCCCCOC(=O)NC2CCC2)cc1C(=O)N[C@@H]1C2CCC(/C2=C/C(F)(F)F)[C@@H]1C(=O)Nc1ccc(F)c(C(F)(F)F)c1 (some centres unmarked)
6.43

More entries:
Give a short answer stating reported pEC50 for COc1ccc(C(=O)N2CCC(S(C)(=O)=O)C2)cc1C(=O)N[C@H]1[C@@H](C(=O)Nc2ccc(F)c(C(F)(F)F)c2)[C@H]2CC[C@@H]1/C2=C\C1CC1 (some centres unmarked) [Example 252] .
8.38

# return recorded pEC50 for entry COc1ccc(CCCNC[C@H](O)C(F)(F)F)cc1C(=O)N[C@@H]1C2CCC(/C2=C/C(F)(F)F)[C@@H]1C(=O)Nc1ccc(F)c(C(F)(F)F)c1 (some centres unmarked)
5.75
